Hey, just so you know, these numbers are from ChEMBL document CHEMBL5316329.

Experiment: Selectivity index, ratio of CC50 for human MT4 cells to EC50 for NNRTI-resistant HIV-1 RES056 infected in human MT4 cells
Format: toxicity, cell-based
Conditions: read-out: Selectivity Index
parameter: selectivity ratio

{"structure-notation": "Cc1cc(/C=C/C#N)cc(C)c1Oc1nc(NC2CCN(Cc3ccc(C(N)=O)cc3)CC2)ncc1-c1cccc(F)c1", "result": 100}
{"structure-notation": "Cc1cc(/C=C/C#N)cc(C)c1Oc1nc(NC2CCN(Cc3ccc(C(N)=O)cc3)CC2)ncc1-c1ccc(F)cc1", "result": 154}
{"structure-notation": "Cc1cc(/C=C/C#N)cc(C)c1Oc1nc(NC2CCN(Cc3ccc(S(C)(=O)=O)cc3)CC2)ncc1-c1ccccc1F", "result": 63}
{"structure-notation": "CC(=O)c1ccc(-c2cnc(NC3CCN(Cc4ccc(S(C)(=O)=O)cc4)CC3)nc2Oc2c(C)cc(/C=C/C#N)cc2C)cc1", "result": 91}
{"structure-notation": "Cc1cc(/C=C/C#N)cc(C)c1Oc1nc(NC2CCN(Cc3ccc(S(N)(=O)=O)cc3)CC2)ncc1-c1ccccc1F", "result": 107}
{"structure-notation": "Cc1cc(/C=C/C#N)cc(C)c1Oc1nc(NC2CCN(Cc3ccc(S(C)(=O)=O)cc3)CC2)ncc1-c1ccc(F)cc1", "result": 43}
{"structure-notation": "Cc1cc(/C=C/C#N)cc(C)c1Oc1nc(NC2CCN(Cc3ccc(C(N)=O)cc3)CC2)ncc1-c1ccc(O)cc1", "result": 142}
{"structure-notation": "Cc1cc(/C=C/C#N)cc(C)c1Oc1nc(NC2CCN(Cc3ccc(S(N)(=O)=O)cc3)CC2)ncc1-c1ccccc1O", "result": 72}
{"structure-notation": "Cc1cc(/C=C/C#N)cc(C)c1Oc1nc(NC2CCN(Cc3ccc(C(N)=O)cc3)CC2)ncc1-c1ccccc1N", "result": 239}
{"structure-notation": "CC(=O)c1ccc(-c2cnc(NC3CCN(Cc4ccc(C(N)=O)cc4)CC3)nc2Oc2c(C)cc(/C=C/C#N)cc2C)cc1", "result": 201}
{"structure-notation": "Cc1cc(/C=C/C#N)cc(C)c1Cc1nc(NC2CCN(Cc3ccc(S(C)(=O)=O)cc3)CC2)ncc1-c1cncnc1", "result": 207}
{"structure-notation": "Cc1cc(/C=C/C#N)cc(C)c1Cc1nc(NC2CCN(Cc3ccc(S(N)(=O)=O)cc3)CC2)ncc1-c1cnc(N)nc1", "result": 85}
{"structure-notation": "Cc1cc(/C=C/C#N)cc(C)c1Oc1nc(NC2CCN(Cc3ccc(S(N)(=O)=O)cc3)CC2)ncc1-c1ccc2c(c1)OCO2", "result": 136}
